Assay: pH and particle size of crude cinacalcet emulsions with different oils and phospholipids
Format: physicochemical
Conditions: crude emulsion; SBO 10%; 2% Purified Egg Lecithin

[
  {
    "compound": "C[C@@H](NCCCc1cccc(C(F)(F)F)c1)c1cccc2ccccc12 [Cinacalcet]",
    "value_units": "µm",
    "D(4, 3)": 0.68
  }
]

* * *

Test: pH and particle size of crude cinacalcet emulsions with different oils and phospholipids
Format: physicochemical
Settings: crude emulsion; MCT 10%; 2% Purified Egg Lecithin

[
  {
    "molecule": "C[C@@H](NCCCc1cccc(C(F)(F)F)c1)c1cccc2ccccc12 [Cinacalcet]",
    "D(4, 3), µm": 0.4
  }
]
